System: OVCAR-3
experiment-description: NCI tumour cell line growth inhibition, 48 h
Activity calls are given as the source filed them. No stated cut-off is given here; in the data, active = GI50 up to about 1.1 µM and inactive = higher. Positions of bridges follow the written chain, without caps; N, C: chain ends. Non-standard residues stand in square brackets, D forms with d. Residues, ends and D or L forms follow the SMILES beside them. ξ: configuration not given here. *: point of attachment. X28 = O=C(/C=C/C=C/C=C/C=C/C=C/C(=O)*)NC1=C(O)CCC1=O; Pro(4R-Me) = C[C@H]1CN[C@H](C(=O)O)C1; NMeA = CN[C@@H](C)C(=O)O; ξF = NC(Cc1ccccc1)C(=O)O; ξA = CC(N)C(=O)O
Give your call using only these classes: yes for active, no for inactive

See these solved cases before continuing.
molecule	answer-label
C[n+]1c2ccccc2cc2c(CNC(CCCNC(=N)N)C(=O)O)cccc21 (stereo not given)	no
CC1NC(=O)[C@H](C)N(C)C(=O)[C@@H]2CCCN2C(=O)[C@@H](NC(=O)C(Cc2ccccc2)NC(=O)/C=C/C=C/C=C/C=C/C=C/C(=O)NC2=C(O)CCC2=O)COC(=O)[C@@H]2C[C@@H](C)CN2C1=O (stereo partly drawn) (X28-[ξF]SP[NMeA][ξA][Pro(4R-Me)]; ester 2-C)	no
O=c1oc2c/c(=C\c3ccccn3)c(=O)c3cccc1c3-2	no

Called result for COc1cc(CCN)c(OC)c(OC)c1
no

Would you mind telling me which call this test gave ONc1ncnc2[nH]cnc12 ?
no

Entry Cc1ccc(C)c(NC(=O)CCC(=O)CC(=O)C(C)(C)C)c1 : call = ?
no

Outcome? C=CCOc1ccc(C(=N/NC(=O)c2ccccc2)/N=N/c2ccc([N+](=O)[O-])cc2)cc1OC
no

Please state the recorded outcome for this molecule: OC1=CN=C(c2ccccc2)Oc2ccccc21
no

Short answer needed: outcome of this test for COC(=O)c1ccccc1C1CN=NC12Cc1ccc(C)c(C)c1C2=O (stereo not given) ?
no

// return assay outcome for C[C@H]1CC[C@H]([C@@H](C)[C@H]2[C@@H](O)C[C@H]3[C@@H]4CC[C@H]5C[C@@H](O)CC[C@]5(C)[C@H]4CC[C@]23C)NC1
no

I'd appreciate the recorded outcome for COc1ccc(-c2cc(C3CC3)nc(SCC(=O)O)c2C#N)cc1 from this test.
no

Assay outcome for O=C(Cc1ccccc1CCO)NCCc1ccccc1 : what was it?
no

State the result this test recorded for COc1cc(OC)c(OC)cc1/C=C/c1ccc2ccccc2n1 .
no

Please indicate how the test categorized CCOC(=O)/C=C(/C(=O)OCC)n1cc(C)c(=O)n(/C(=C/C(=O)OCC)C(=O)OCC)c1=O .
no

Assay result, entry C=CCc1c(C)nc(C)nc1N/N=C/C=C/c1ccccc1 — outcome?
no

Each molecule tested received a call. Report the one for CN(C)CCC(=O)N1C/C(=C/c2ccccc2)C(=O)/C(=C\c2ccccc2)C1 .
no

Can you look up the reported call for S=C(N/N=C(/c1ccccc1)c1ccccn1)N(Cc1ccccn1)Cc1ccccn1 for me?
yes

Please indicate how the test categorized COC(=O)/C=C/C1C2C3(CCC(C)C12C)OCCS3 (stereo not given) .
no

Recorded test call requested for O=C(c1ccccc1)C1OC12C(=O)Nc1ccccc12 (stereo not given)
no

Test call, this molecule: CC1(C)OCC(CO)(CO)CO1
no
